Biological target: human recombinant ATX (Homo sapiens (Human), UniProt Q13822)
Assay: Autotaxin (ATX) activity Quanta Red assay
Assay type: biochemical
Settings: 15 μM Rac-1-Palmitoyl-glycero-3-phosphocholine, 2 hours room temperature, determined in duplicate
endpoint name: pIC50
The value called pIC50 is obtained by taking minus log10 of the concentration in mol/L.

Req: // fetch human recombinant ATX (Homo sapiens (Human), UniProt Q13822) pIC50 for COCCN(C)Cc1ccc(N2CC(NC(=O)c3nnc(CCc4ccc(Cl)cc4)s3)CC2=O)cc1 (stereo not drawn)
Resp: 8.05

Req: // fetch human recombinant ATX (Homo sapiens (Human), UniProt Q13822) pIC50 for O=C(Nc1nnc(CCc2ccc(F)cc2)s1)[C@H]1CC(=O)N(c2ccc(CN3CCOCC3)cc2)C1
Resp: 8.52

Req: // fetch human recombinant ATX (Homo sapiens (Human), UniProt Q13822) pIC50 for O=C(Nc1cc(CCc2ccccc2)no1)C1CC(=O)N(c2ccc(CN3CCOCC3)cc2)C1 (stereo not drawn)
Resp: 6.12
